target: 5-HT2A (Homo sapiens); test: Gq-mediated calcium flux assay, Flp-In 293 T-Rex inducible cells (agonist and antagonist mode); conditions: antagonist mode, 3.2 nM 5-HT; read-out: IC50, antagonism at 5-HT2A
Sequence (P28223 whole entry): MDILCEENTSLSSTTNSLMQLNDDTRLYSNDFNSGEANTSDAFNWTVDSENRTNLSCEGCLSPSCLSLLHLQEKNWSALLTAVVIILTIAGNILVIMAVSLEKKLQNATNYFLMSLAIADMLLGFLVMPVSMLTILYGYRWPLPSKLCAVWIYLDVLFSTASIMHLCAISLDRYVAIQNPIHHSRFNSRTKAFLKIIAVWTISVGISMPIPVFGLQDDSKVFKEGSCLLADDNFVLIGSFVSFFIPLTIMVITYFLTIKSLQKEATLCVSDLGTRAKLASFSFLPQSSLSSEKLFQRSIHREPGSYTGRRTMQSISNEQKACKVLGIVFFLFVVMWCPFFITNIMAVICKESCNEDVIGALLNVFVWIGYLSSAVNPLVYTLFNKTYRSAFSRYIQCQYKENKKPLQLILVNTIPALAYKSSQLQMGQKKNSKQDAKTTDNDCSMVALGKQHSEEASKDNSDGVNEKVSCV
OUTCOME_MEASURE: IC50 (nM)
Give bare numbers, in nM.

Can you share its IC50? I mean this compound: `COc1cc(CCNCCCCCCOCCCCc2ccccc2)c(OC)cc1Br`
1300

###

molecular target: UniProt P35498
OUTCOME_MEASURE: pIC50
Give bare numbers, as −log10 of the molar value.

Which pIC50 is listed for `COc1cc(CCNCCCCCCOCCCCc2ccccc2)c(OC)cc1Br` ?
5.37
